Target: rat B1R (bradykinin receptor 1) (Rattus norvegicus, UniProt P97583)
Construct: expressed in transfected cells; host or cells: CHO K1 cells
Sequence (P97583 whole entry): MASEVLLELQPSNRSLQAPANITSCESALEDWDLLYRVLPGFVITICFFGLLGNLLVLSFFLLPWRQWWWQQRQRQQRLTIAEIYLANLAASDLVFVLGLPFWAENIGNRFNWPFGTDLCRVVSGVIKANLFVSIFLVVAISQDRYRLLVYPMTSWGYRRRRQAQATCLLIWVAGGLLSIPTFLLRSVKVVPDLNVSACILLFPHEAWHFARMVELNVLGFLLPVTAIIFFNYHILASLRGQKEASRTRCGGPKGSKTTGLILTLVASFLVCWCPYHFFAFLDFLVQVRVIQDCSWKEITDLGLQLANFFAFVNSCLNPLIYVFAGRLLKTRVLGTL
Test: FLIPR Ca2+ assay (Fluo-4) on CHO K1 cells stably transfected with the B1R gene of the rat (rB1R cells): % inhibition at 10 μM / IC50, agonist Des-Arg9-bradykinin
Format: cell-based
Conditions: CHO-K1, rat B1R
property.label: inhibition at 10 µM (%)
# output: bare number, implied unit %

Consider the compound O=C(NC1CCc2ccc(C(=O)N3CCC4(CC3)CCN(c3ccncc3)C4)cc21)c1ccc(F)cc1Cl (stereo not shown) [IND_CC-263] and give its measured inhibition at 10 µM.
81

// same read-out, input: O=C(c1ccc2c(c1)C(NS(=O)(=O)Cc1ccccc1F)CC2)N1CCC2(CC1)CCN(c1ccncc1)CC2 (stereo not shown) [IND_CC-349]
105

// same read-out, input: CN(C(=O)c1ccc(Cl)s1)C1CCc2ccc(C(=O)N3CCC4(CC3)CCN(c3ccncc3)CC4)cc21 (stereo not shown) [Ind_CC-017]
102

// same read-out, input: O=C(NC1CCc2ccc(C(=O)N3CCC4(CC3)CCN(c3ccncc3)CC4)cc21)C(c1ccccc1)c1ccccc1Cl (stereo not shown) [Ind_CC-009]
99

// same read-out, input: O=C(NC1CCc2ccc(C(=O)N3CCC4(CC3)CCN(c3ccncc3)CC4)cc21)C1CCCC1 (stereo not shown) [IND_CC-391]
103

Others:
Consider the compound CC1(C)Cc2ccc(C(=O)N3CCC4(CC3)CCN(c3ccncc3)CC4)cc2C1NS(=O)(=O)c1ccc(Cl)cc1Cl (stereo not shown) [IND_CC-334] and give its measured inhibition at 10 µM.
90

// same read-out, input: Cc1cccc(C(=O)NC2CCc3ccc(C(=O)N4CCC5(CC4)CCN(c4ccncc4)C5)cc32)c1C (stereo not shown) [IND_CC-388]
101
